# experimental-system: Rat brain protein farnesyltransferase (Rattus norvegicus, UniProt Q02293+Q04631)
# Construct: Rat brain protein farnesyltransferase activity is measured; from tissue; host or cells: rat brain
# Sequence (Q02293 whole entry, one chain of several): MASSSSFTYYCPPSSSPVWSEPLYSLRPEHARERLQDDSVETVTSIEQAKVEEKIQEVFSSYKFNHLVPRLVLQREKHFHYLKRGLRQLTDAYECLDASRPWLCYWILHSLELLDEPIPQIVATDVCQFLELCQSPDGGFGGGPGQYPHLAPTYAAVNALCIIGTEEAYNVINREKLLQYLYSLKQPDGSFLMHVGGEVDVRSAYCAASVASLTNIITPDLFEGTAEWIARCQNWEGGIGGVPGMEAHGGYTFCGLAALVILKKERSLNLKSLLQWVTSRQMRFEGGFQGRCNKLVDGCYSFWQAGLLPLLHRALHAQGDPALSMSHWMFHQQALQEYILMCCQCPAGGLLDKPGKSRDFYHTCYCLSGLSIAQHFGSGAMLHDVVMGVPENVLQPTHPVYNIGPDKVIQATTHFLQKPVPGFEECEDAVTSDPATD
# protocol-notes: % inhibition of farnesylation, scintillation proximity assay with biotin-K Ras B fragment
# Type: biochemical
# particulars: Table 2; 1 × 10^-6 M
# Description: The ability of the compounds of the invention to inhibit protein farnesyltransferase or protein geranylgeranyltransferase can be measured according to the method of Moores, et al., J. Biol. Chem. 266: 14603 (1991) or the method of Vogt, et al., J. Biol. Chem. 270:660-664 (1995). […] In addition, in vitro inhibition of protein farnesyltransferase may be measured by the following procedure. […] The % inhibition of protein farnesyltransferase was determined for representative compounds of the invention.
% inhibition at 1 × 10^-6 M overview
Give the value, in units of %, as a plain number.

See these solved cases before continuing.
[[record]]
smiles_structure = "CSCC[C@H](NC(=O)c1ccc(S(=O)(=O)NCCN2CCOCC2)cc1-c1ccccc1C)C(=O)O"
experimental_system = "Rat brain protein farnesyltransferase (Rattus norvegicus, UniProt Q02293+Q04631)"
recorded_value = 32

[[record]]
smiles_structure = "Cc1ccccc1-c1cc(CN(C2CC2)C2(Cc3ccccc3)CCC2)ccc1C(=O)N[C@@H](CCS(C)(=O)=O)C(=O)O"
experimental_system = "Rat brain protein farnesyltransferase (Rattus norvegicus, UniProt Q02293+Q04631)"
recorded_value = 99

[[record]]
smiles_structure = "CSCC[C@H](NC(=O)c1ccc(C=Cc2ccccc2Cc2ccccc2)cc1-c1ccccc1C)C(=O)[O-].[Li+]"
experimental_system = "Rat brain protein farnesyltransferase (Rattus norvegicus, UniProt Q02293+Q04631)"
recorded_value = 92


# evaluate next
Problem: Fetch value of % inhibition at 1 × 10^-6 M on Rat brain protein farnesyltransferase (Rattus norvegicus, UniProt Q02293+Q04631) for `COc1ccccc1CCC(=O)Nc1ccc(C(=O)N[C@@H](CCSC)C(=O)O)c(-c2ccccc2C)c1` .
Result: 35

* * *

% inhibition at 1 × 10^-5 M overview
# experimental-system: Rat brain protein farnesyltransferase (Rattus norvegicus, UniProt Q02293+Q04631)
# Construct: Rat brain protein farnesyltransferase activity is measured; from tissue; host or cells: rat brain
# protocol-notes: % inhibition of farnesylation, scintillation proximity assay with biotin-K Ras B fragment
# Assay type: biochemical
# particulars: Table 1; 1 × 10^-5 M
Give the value, in units of %, as a plain number.

[[record]]
smiles_structure = "CSCC[C@H](NC(=O)c1ccc(CNc2ccc3ncccc3c2)cc1-c1ccccc1)C(=O)O"
result_unit = "%"
recorded_value = 76

[[record]]
smiles_structure = "CSCC[C@H](NC(=O)c1ccc(CNCCN2CCCCC2)cc1-c1ccccc1)C(=O)O"
result_unit = "%"
recorded_value = 83

[[record]]
smiles_structure = "COc1ccc(Br)c(C(=O)Nc2ccc(C(=O)N[C@@H](CCSC)C(=O)O)c(-c3ccccc3)c2)c1"
result_unit = "%"
recorded_value = 40

[[record]]
smiles_structure = "CSCC[C@H](NC(=O)c1ccc(CNc2cccc(O)c2)cc1-c1ccccc1)C(=O)O"
result_unit = "%"
recorded_value = 76


# evaluate next
Problem: Find the measured % inhibition at 1 × 10^-5 M of `CSCC[C@H](NC(=O)c1ccc(CNc2ccc(C(C)C)cc2)cc1-c1ccccc1)C(=O)O` and report it.
Result: 74
